Measured inhibition at 1 µM values are reported for all entries that follow.
# target: ABHD6 (Mus musculus, UniProt Q8R2Y0)
# Construct: Proteomes (mouse brain membrane fraction or cell lysates); from tissue; host or cells: mouse brain membrane fraction or cell lysates
# Sequence (Q8R2Y0 whole entry): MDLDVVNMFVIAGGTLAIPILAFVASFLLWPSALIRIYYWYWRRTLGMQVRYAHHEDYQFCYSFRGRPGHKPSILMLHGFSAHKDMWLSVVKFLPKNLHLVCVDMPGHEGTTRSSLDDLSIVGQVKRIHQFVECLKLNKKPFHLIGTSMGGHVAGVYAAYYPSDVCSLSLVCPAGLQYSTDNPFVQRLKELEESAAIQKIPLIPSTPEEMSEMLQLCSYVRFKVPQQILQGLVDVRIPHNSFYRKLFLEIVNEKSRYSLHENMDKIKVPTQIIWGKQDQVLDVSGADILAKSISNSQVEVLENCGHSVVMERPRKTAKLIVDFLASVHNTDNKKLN
# assay name: In vitro competitive activity-based protein profiling (mouse), ABHD6
# Format: biochemical
# experimental setup: 1 μM inhibitor, mouse brain membrane fraction or cell lysates; read-out: ABHD6 % inh. 1 μM (mouse)
measurement kind: inhibition at 1 µM

{"compound structure": "O=C(O)CN1CCC(c2cc(C(F)(F)F)ccc2CN2CCN(C(=O)OC(C(F)(F)F)C(F)(F)F)CC2)CC1", "endpoint value": "0 to 25%"}
{"compound structure": "O=C(O)Cn1ccc(-c2cc(C(F)(F)F)ccc2CN2CCN(C(=O)OC(C(F)(F)F)C(F)(F)F)CC2)n1", "endpoint value": "≥ 75%"}
{"compound structure": "CC1(NCC(=O)O)CCN(c2cc(C(F)(F)F)ccc2CN2CCN(C(=O)OC(C(F)(F)F)C(F)(F)F)CC2)CC1", "endpoint value": "0 to 25%"}
{"compound structure": "O=C(O)CNC1CCN(c2cc(C(F)(F)F)ccc2CN2CCN(C(=O)OC(C(F)(F)F)C(F)(F)F)CC2)CC1", "endpoint value": "0 to 25%"}
{"compound structure": "O=C(OC(C(F)(F)F)C(F)(F)F)N1CCN(Cc2ccc(Cl)cc2C2(C(=O)O)CCCC2)CC1", "endpoint value": "0 to 25%"}
{"compound structure": "O=C(O)CN1CCC2(C1)CN(c1cc(C(F)(F)F)ccc1CN1CCN(C(=O)OC(C(F)(F)F)C(F)(F)F)CC1)C2", "endpoint value": "0 to 25%"}
{"compound structure": "O=C(O)[C@@H]1CCCN(c2cc(CN3CCN(C(=O)OC(C(F)(F)F)C(F)(F)F)CC3)cc(C(F)(F)F)c2)C1", "endpoint value": "≥ 75%"}
{"compound structure": "O=C(O)C1CCN(c2c(Cl)cccc2CN2CCN(C(=O)OC(C(F)(F)F)C(F)(F)F)CC2)CC1", "endpoint value": "50 to 75%"}
{"compound structure": "O=C(O)C1CCN(c2cc(S(F)(F)(F)(F)F)ccc2CN2CCN(C(=O)OC(C(F)(F)F)C(F)(F)F)CC2)CC1", "endpoint value": "≥ 75%"}

---

Measured inhibition at 5 mg/kg values are reported for all entries that follow.
# target: MAGL (Mus musculus)
# Construct: Proteomes (mouse brain membrane fraction or cell lysates); from tissue; host or cells: mouse brain membrane fraction or cell lysates
# Sequence (O35678 whole entry): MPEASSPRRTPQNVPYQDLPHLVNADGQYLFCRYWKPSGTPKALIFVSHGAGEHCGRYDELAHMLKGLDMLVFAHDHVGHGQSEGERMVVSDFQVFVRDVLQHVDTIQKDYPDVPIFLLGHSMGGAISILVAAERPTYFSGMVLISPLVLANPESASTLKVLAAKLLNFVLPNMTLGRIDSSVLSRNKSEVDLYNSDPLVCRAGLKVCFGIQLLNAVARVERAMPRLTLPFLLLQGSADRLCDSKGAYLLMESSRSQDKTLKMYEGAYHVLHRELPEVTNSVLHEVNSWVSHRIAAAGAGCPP
# assay name: Mouse brain proteomes from inhibitor treated mice, MAGL inhibition
# Format: in vivo
# experimental setup: 5 mg/kg oral gavage, C57Bl/6J mouse brain, 4 h following administration; read-out: MAGL % inh. 5 mg/kg (mouse)

{"compound": "O=C(OC(C(F)(F)F)C(F)(F)F)N1CCN(Cc2ccc(Cl)cc2C2(C(=O)O)CCCC2)CC1", "inhibition at 5 mg/kg": "≥ 75%"}
{"compound": "CC1(C(=O)O)CN(c2cc(C(F)(F)F)ccc2CN2CCN(C(=O)OC(C(F)(F)F)C(F)(F)F)CC2)CCO1 (centres unmarked)", "inhibition at 5 mg/kg": "0 to 25%"}
{"compound": "O=C(OC(C(F)(F)F)C(F)(F)F)N1CCN(Cc2ccc(C(F)(F)F)cc2C2(C(=O)O)CCOCC2)CC1", "inhibition at 5 mg/kg": "≥ 75%"}
{"compound": "O=C(OC(C(F)(F)F)C(F)(F)F)N1CCN(Cc2ccc(F)cc2C2(C(=O)O)CCCC2)CC1", "inhibition at 5 mg/kg": "≥ 75%"}
{"compound": "O=C(O)C1CCN(c2c(CN3CCN(C(=O)OC(C(F)(F)F)C(F)(F)F)CC3)ccc(Cl)c2F)CC1", "inhibition at 5 mg/kg": "≥ 75%"}
